- assayed-target: T1, human ADAM9 (huADAM9) on cells (human, UniProt Q13443 206-819)
- T1 construct: The pro-domain is said to be cleaved (Arg-205/Ala-206) in the mature protein; also called Cho-K/huADAM9; Cho-K/hu ADAM9.2
- T1 sequence: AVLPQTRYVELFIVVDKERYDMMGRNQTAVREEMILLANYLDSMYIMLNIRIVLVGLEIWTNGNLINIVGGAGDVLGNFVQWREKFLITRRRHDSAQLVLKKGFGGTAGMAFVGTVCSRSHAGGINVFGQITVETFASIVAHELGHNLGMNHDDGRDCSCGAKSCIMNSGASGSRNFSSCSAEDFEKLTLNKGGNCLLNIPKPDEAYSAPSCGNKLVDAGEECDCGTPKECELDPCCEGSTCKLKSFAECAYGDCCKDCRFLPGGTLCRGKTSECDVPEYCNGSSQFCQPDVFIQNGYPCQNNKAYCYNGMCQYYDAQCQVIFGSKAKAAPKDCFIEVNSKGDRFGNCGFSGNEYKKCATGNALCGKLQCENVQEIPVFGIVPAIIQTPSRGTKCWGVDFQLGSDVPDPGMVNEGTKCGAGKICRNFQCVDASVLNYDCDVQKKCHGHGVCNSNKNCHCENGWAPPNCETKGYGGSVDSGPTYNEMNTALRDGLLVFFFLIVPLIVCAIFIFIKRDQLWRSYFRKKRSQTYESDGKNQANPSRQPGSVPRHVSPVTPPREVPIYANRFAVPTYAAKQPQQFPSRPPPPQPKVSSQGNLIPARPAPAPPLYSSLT
- assay-comment: FACS, 300-19 cells expressing human ADAM9
result-type: EC50 (nM)
Write down the numeric answer in nM and omit the unit.

• hMAB-A(2.2)-sSPDB-DM4 (antibody, human IgG1, kappa, V domains shown, lysine-linked DM4, sites not given; DM4 linked through sulfo-SPDB to lysine residues of the antibody, sites not given; average 3.2 mol DM4/mol antibody, also called huMAB-A(2.2)-sSPDB-DM4) VH: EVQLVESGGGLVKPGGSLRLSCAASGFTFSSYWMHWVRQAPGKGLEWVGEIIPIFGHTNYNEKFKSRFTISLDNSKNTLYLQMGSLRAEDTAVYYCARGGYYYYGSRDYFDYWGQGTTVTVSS VL: DIVMTQSPDSLAVSLGERATISCKASQSVDYSGDSYMNWYQQKPGQPPKLLIYAASDLESGIPARFSGSGSGTDFTLTISSLEPEDFATYYCQQSHEDPFTFGQGTKLEIKR = 1.11

Any idea what its EC50 is? The binder is hMAB-A(2.2)-DGN549 (antibody, human IgG1, kappa, V domains shown, lysine-linked DGN549, sites not given; DGN549-L (compound D2) linked to lysine residues of the antibody, sites not given; average 2.7 mol DGN549/mol antibody) VH: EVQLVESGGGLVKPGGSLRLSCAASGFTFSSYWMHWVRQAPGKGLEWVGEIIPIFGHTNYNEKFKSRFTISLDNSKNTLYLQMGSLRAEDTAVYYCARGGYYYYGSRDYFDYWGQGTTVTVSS VL: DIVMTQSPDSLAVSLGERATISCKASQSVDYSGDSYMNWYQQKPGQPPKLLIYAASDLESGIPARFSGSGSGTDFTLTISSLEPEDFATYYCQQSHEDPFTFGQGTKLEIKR
1.55

Then what about the binder chMAB-A-sSPDB-DM4 (antibody, V domains shown, lysine-linked DM4, sites not given; DM4 linked through sulfo-SPDB to lysine residues of the antibody, sites not given; average 3.4 mol DM4/mol antibody) VH: QVQLQQPGAELVKPGASVKLSCKASGYTFTSYWMHWVKQRPGQGLEWIGEIIPINGHTNYNEKFKSKATLTLDKSSSTAYMQLSSLASEDSAVYYCARGGYYYYGSRDYFDYWGQGTTLTVSS VL: DIVLTQSPASLAVSLGQRATISCKASQSVDYDGDSYMNWYQQIPGQPPKLLIYAASDLESGIPARFSGSGSGTDFTLNIHPVEEEDAATYYCQQSHEDPFTFGGGTKLEIK ?
0.95
